Affinity ELISA CPE mutant ratio (1:3, pH 6.0/7.4) listing for selected molecules.
# Experimental target: T1, Axl (Homo sapiens, UniProt P30530)
# T1 sequence (P30530 26-451 limits assumed): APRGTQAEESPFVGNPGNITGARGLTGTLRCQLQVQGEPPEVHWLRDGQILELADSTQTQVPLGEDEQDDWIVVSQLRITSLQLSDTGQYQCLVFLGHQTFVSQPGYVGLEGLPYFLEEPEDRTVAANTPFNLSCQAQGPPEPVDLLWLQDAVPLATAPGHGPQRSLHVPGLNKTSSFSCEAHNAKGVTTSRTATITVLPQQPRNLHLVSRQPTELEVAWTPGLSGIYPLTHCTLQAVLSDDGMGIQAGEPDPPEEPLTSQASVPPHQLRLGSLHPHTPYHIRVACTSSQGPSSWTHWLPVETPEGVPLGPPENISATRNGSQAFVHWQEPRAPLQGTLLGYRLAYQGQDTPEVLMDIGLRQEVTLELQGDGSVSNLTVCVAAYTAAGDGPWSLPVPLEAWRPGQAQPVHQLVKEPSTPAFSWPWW
# Run description: Affinity ELISA of CPE mutant antibodies for binding to Axl at pH 6.0 over pH 7.4
# Details: heavy chain variable region mutants; 1:3 dilution
# Excerpt: The DNA encoding the wild-type antibody was evolved to generate a mutant antibody library using Comprehensive Positional Evolution (CPE), which each position in the template antibody is randomized one at a time. Each mutant antibody in the library has only one single point mutation. The mutant antibodies in the library were generated by simultaneously screening for selective binding affinity to Axl at pH 6.0 over pH 7.4 by ELISA. Two mutant antibody dilutions were used: 1:3 and 1:9 dilutions. […]
Observable: Affinity ELISA CPE mutant ratio (1:3, pH 6.0/7.4)

{"Molecule": "HC-Y104C (antibody, V domains shown) VH: EVQLVQSGAEVKKPGATVKISCKVSGYSFTGHTMNWIRQPPGKGLEWIGLIKPSNGGTSYNQKFKGRVTISADKSISTAYLQWSSLKASDTAMYYCAHGHYESCFAMDYWGQGTLVTVSS VL: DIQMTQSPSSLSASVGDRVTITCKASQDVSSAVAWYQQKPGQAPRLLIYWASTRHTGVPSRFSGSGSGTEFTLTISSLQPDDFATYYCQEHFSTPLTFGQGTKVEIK", "Numeric value": 1.845}
{"Molecule": "HC-E102V (antibody, V domains shown) VH: EVQLVQSGAEVKKPGATVKISCKVSGYSFTGHTMNWIRQPPGKGLEWIGLIKPSNGGTSYNQKFKGRVTISADKSISTAYLQWSSLKASDTAMYYCAHGHYVSYFAMDYWGQGTLVTVSS VL: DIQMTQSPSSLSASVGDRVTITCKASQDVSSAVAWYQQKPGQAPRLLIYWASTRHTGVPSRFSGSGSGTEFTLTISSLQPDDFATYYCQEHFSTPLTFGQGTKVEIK", "Numeric value": 1.931}
